# target_desc: T1, HU (Neisseria gonorrhoeae, UniProt Q5F8J6 1-89)
# T1 sequence: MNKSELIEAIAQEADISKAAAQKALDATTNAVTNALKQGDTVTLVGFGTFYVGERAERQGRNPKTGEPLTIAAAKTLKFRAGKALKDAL
# experimental_details: EMSA; 20 mM Tris-HCl pH 8.0, 150 mM NaCl, 7% glycerol; 15 min; labelled DNA 10.5 nM; gel in 100 mM Tris-borate; temperature not stated
# measurement_parameters: protein: recombinant; tags: N-terminal 6xHisTEV removed by TEV protease; chain copies: 2; label: 5'-HEX on strand 1; 3' overhang 28 nt
measured_property: Kd (nM)
Answers are plain numbers, in nM.

Query: Fill blank: measured Kd of the binder overhang (ov) (structured_DNA) DNA 1: AGTCTAGAGTGCAGTTGAGTCCTTGCTACGACGGATCCCTTAGGTCAG DNA 2: ACTCAACTGCACTCTAGACT is ____.
Reply: 120
